Biological target: TYK2 (Homo sapiens, UniProt P29597)
Construct: Degradation of TYK2 in cells was quantitatively measured using Meso Scale Discovery (MSD) technology; endogenous in cells; host or cells: OCI-LY10
Sequence (P29597 whole entry): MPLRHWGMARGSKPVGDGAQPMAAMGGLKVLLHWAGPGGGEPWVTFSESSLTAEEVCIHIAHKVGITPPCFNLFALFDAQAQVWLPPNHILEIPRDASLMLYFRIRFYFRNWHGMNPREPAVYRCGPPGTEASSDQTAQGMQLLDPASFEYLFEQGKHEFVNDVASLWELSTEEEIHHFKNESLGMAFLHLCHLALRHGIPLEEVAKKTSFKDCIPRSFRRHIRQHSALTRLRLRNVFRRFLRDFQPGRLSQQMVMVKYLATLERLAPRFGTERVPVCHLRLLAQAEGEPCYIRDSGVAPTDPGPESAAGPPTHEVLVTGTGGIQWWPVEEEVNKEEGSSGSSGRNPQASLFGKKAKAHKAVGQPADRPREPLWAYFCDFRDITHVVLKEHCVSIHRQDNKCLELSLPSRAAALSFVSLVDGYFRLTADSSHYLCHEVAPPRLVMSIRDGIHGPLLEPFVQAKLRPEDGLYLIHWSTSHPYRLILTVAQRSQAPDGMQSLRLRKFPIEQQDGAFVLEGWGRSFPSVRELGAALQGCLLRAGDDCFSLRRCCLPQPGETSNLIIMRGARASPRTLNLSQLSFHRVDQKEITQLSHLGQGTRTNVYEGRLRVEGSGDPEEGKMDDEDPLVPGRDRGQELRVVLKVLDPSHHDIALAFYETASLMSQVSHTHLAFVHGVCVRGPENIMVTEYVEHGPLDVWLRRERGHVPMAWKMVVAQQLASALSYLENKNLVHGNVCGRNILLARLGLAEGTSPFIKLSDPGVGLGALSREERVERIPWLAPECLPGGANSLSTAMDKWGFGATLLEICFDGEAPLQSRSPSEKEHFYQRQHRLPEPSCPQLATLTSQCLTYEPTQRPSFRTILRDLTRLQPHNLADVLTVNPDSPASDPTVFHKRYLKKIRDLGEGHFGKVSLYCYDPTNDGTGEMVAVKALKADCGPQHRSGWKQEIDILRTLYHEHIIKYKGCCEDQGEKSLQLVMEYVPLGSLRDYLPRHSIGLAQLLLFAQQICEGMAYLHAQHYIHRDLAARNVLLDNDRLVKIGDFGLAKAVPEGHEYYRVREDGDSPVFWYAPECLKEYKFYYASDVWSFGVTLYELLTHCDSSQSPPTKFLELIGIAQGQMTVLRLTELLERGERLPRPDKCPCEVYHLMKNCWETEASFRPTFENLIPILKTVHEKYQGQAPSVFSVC
Experiment: TYK2 MSD degradation in OCI-LY10 cells
Format: cell-based
Details: OCI-LY10 cells, 4 to 24 hours incubation

[
  {
    "Compound": "CNc1cc(N2CCc3c(-c4ccc(CN5CCC(N6CC(N7CCN(c8ccc9c(c8F)n(C)c(=O)n9C8CCC(=O)NC8=O)CC7)C6)C(F)(F)C5)cn4)cccc32)nn2c(C(=O)N[C@@H]3C[C@@H]3F)cnc12 (some centres unmarked)",
    "Target of assay": "TYK2 (Homo sapiens, UniProt P29597)",
    "TYK2 MSD OCI-LY10 Dmax %": "B (B (90 to >75%))"
  },
  {
    "Compound": "CNc1cc(N2CCc3c(CN4CCC(N5CCC6(CCN(C(=O)c7cc(N8CCC(=O)NC8=O)c(Cl)cc7C)CC6)CC5)C(F)(F)C4)cccc32)nn2c(C(=O)N[C@@H]3C[C@@H]3F)cnc12 (some centres unmarked)",
    "Target of assay": "TYK2 (Homo sapiens, UniProt P29597)",
    "TYK2 MSD OCI-LY10 Dmax %": "B (B (90 to >75%))"
  },
  {
    "Compound": "CNc1cc(N2CCc3c(-c4ccc(CN5CCC6(CCN(C(=O)c7cc(F)c(Cl)c(N8CCC(=O)NC8=O)c7)CC6)C(F)(F)C5)cn4)cc(F)cc32)nn2c(C(=O)N[C@@H]3CC[C@H]3OC)cnc12",
    "Target of assay": "TYK2 (Homo sapiens, UniProt P29597)",
    "TYK2 MSD OCI-LY10 Dmax %": "B (B (90 to >75%))"
  }
]
